Origin of values: patent US20160355587A1

# target.entity: T1, human CD166 protein (human, UniProt Q13740 28-526, limits assumed)
# T1 construct: Isolated human CD166 protein coated on ELISA plates; also called ALCAM
# T1 sequence (looked up): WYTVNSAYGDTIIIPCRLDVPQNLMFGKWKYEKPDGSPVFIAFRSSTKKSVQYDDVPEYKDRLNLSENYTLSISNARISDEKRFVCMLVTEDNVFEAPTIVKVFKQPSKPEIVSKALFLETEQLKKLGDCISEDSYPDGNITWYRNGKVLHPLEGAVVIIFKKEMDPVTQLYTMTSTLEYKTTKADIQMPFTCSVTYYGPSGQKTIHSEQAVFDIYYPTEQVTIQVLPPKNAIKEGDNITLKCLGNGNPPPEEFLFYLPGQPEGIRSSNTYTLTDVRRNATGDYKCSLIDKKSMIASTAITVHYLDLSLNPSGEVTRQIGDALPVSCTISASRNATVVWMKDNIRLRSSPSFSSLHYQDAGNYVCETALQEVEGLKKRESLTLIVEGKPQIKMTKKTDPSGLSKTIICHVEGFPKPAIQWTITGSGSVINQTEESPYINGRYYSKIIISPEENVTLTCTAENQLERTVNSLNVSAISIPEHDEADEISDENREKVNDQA
# protocol.text: ELISA; relative to parental CD166 M9 vk1/HcB
outcome.measure: Fold Increase in Kd (fold)
Your answer is read as fold, so omit the unit and give the number.

Illustrative cases are given below, each with its answer.
CD166-7614.5-2001 (antibody) chain 1: QITLKESGPTLVKPTQTLTLTCTFSGFSLSTYGMGVGWIRQPPGKALEWLANIWWSEDKHYSPSLKSRLTITKDTSKNQVVLTMTNMDPVDTATYYCVQIDYGNDYAFTYWGQGTLVTVSS chain 2: QGQSGQGLCHALVLSAWESCSSGGGSSGGSISSGLLSGRSDNHGGGSDIVMTQSPLSLPVTPGEPASISCRSSKSLLHSNGITYLYWYLQKPGQSPQLLIYQMSNLASGVPDRFSGSGSGTDFTLKISRVEAEDVGVYYCAQNLELPYTFGQGTKLEIK :: 112
CD166-16522.15-2001 (antibody) chain 1: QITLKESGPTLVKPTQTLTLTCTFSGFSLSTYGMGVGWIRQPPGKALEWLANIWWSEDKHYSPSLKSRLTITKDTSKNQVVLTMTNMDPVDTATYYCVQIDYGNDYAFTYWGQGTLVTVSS chain 2: QGQSGQGLEGWCAHPLCLWGAGGGGSSGGSISSGLLSGRSDNHGGGSDIVMTQSPLSLPVTPGEPASISCRSSKSLLHSNGITYLYWYLQKPGQSPQLLIYQMSNLASGVPDRFSGSGSGTDFTLKISRVEAEDVGVYYCAQNLELPYTFGQGTKLEIK :: 101
CD166-16522.17-2001 (antibody) chain 1: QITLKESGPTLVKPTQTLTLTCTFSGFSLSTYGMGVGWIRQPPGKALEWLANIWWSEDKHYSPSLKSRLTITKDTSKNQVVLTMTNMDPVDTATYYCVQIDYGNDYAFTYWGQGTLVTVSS chain 2: QGQSGQGLEGWCLHALCLWGAGGGGSSGGSISSGLLSGRSDNHGGGSDIVMTQSPLSLPVTPGEPASISCRSSKSLLHSNGITYLYWYLQKPGQSPQLLIYQMSNLASGVPDRFSGSGSGTDFTLKISRVEAEDVGVYYCAQNLELPYTFGQGTKLEIK :: 14
CD166-16522.14-2001 (antibody) chain 1: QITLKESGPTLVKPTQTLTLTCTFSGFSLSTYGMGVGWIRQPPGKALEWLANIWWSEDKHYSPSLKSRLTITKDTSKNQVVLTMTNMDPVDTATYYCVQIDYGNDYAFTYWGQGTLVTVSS chain 2: QGQSGQGLEGACLHPLCLWGAGGGGSSGGSISSGLLSGRSDNHGGGSDIVMTQSPLSLPVTPGEPASISCRSSKSLLHSNGITYLYWYLQKPGQSPQLLIYQMSNLASGVPDRFSGSGSGTDFTLKISRVEAEDVGVYYCAQNLELPYTFGQGTKLEIK :: 95
CD166-7614.13-2001 (antibody) chain 1: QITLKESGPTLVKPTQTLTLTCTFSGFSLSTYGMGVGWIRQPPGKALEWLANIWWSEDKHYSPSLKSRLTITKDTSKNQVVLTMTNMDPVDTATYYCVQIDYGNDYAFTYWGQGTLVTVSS chain 2: QGQSGQGHPLGGGSSGGSISSGLLSGRSDNHGGGSDIVMTQSPLSLPVTPGEPASISCRSSKSLLHSNGITYLYWYLQKPGQSPQLLIYQMSNLASGVPDRFSGSGSGTDFTLKISRVEAEDVGVYYCAQNLELPYTFGQGTKLEIK :: 18

Continue with the next binder.
# Fold Increase in Kd of CD166-7614.10-2001 (antibody) chain 1: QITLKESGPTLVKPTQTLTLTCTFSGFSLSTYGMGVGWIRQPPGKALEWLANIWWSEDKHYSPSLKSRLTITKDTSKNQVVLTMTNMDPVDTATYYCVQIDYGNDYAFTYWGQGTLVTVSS chain 2: QGQSGQGLCHPLVLSAWASCSSGGGSSGGSISSGLLSGRSDNHGGGSDIVMTQSPLSLPVTPGEPASISCRSSKSLLHSNGITYLYWYLQKPGQSPQLLIYQMSNLASGVPDRFSGSGSGTDFTLKISRVEAEDVGVYYCAQNLELPYTFGQGTKLEIK = 154
